Every entry's value here was drawn from paper PMC9951859.

The entries below are paired with their reported Hemolysis (HC10).
tested on: human red blood cells; assay: Hemolytic assay; assay type: cell-based; settings: concentration at 10% hemolytic activity on human red blood cells; mean (n = 2); top dose tested 32 μg/mL
testReadout: Hemolysis (HC10)

{"columns": ["compound", "experimentalResult"],
 "data": [
  ["C[C@H](CCC(=O)NCCCNCCCCCCCCCCCCNCCCNC(=O)CC[C@@H](C)[C@H]1CC[C@H]2[C@@H]3C[C@H](O)[C@@H]4C[C@H](O)CC[C@]4(C)[C@H]3CC[C@]12C)[C@H]1CC[C@H]2[C@@H]3C[C@H](O)[C@@H]4C[C@H](O)CC[C@]4(C)[C@H]3CC[C@]12C.O=C(O)C(F)(F)F.O=C(O)C(F)(F)F [Compound 7f]", ">25 µM"],
  ["C[C@H](CCC(=O)NCCCNCCCCCCCNCCCNC(=O)CC[C@@H](C)[C@H]1CC[C@H]2[C@@H]3C[C@H](O)[C@@H]4C[C@H](O)CC[C@]4(C)[C@H]3CC[C@]12C)[C@H]1CC[C@H]2[C@@H]3C[C@H](O)[C@@H]4C[C@H](O)CC[C@]4(C)[C@H]3CC[C@]12C.O=C(O)C(F)(F)F.O=C(O)C(F)(F)F [Compound 7c]", ">26 µM"],
  ["C[C@H](CCC(=O)NCCCNCCCCCCCCNCCCNC(=O)CC[C@@H](C)[C@H]1CC[C@H]2[C@@H]3C[C@H](O)[C@@H]4C[C@H](O)CC[C@]4(C)[C@H]3CC[C@]12C)[C@H]1CC[C@H]2[C@@H]3C[C@H](O)[C@@H]4C[C@H](O)CC[C@]4(C)[C@H]3CC[C@]12C.O=C(O)C(F)(F)F.O=C(O)C(F)(F)F [Compound 7d]", ">26 µM"]
]}
